Value source: patent USRE47689E1

quantityKind: melting point

# input Report melting point for Cc1ccc2nc(-c3cc4ccc(N5CCNCC5)cc4oc3=O)cn2c1 [Compound 51] please.
# output 229 to 232 °C

# input Quick one: melting point for Cc1cc(Cl)cn2cc(-c3cc4ccc(N5C[C@@H](C)N[C@@H](C)C5)cc4oc3=O)nc12 [Compound 265] ?
# output 271 to 281 °C

# input Item Cc1cn2cc(-c3cc4ccc(N5CCN(CCO)CC5)cc4oc3=O)nc2cn1 [Compound 837] has what recorded melting point?
# output 246 to 252 °C

# input Quick one: melting point for Cc1cn2cc(-c3cc4ccc(N5CCN(C(C)C)CC5)cc4oc3=O)nc2cn1 [Compound 833] ?
# output 275 to 280 °C

# input melting point for Cc1nn2cc(-c3cc4ccc(N5CCN[C@@H](C)C5)cc4oc3=O)nc2s1 [Compound 482] ?
# output 205 to 209 °C

# input melting point for Cc1cn2cc(-c3cc4ccc(N(C)[C@H]5CCNC5)cc4oc3=O)nc2c(C)n1 [Cpd 620] ?
# output 192 to 202 °C

# input Look up melting point: C[C@@H]1CN(c2ccc3cc(-c4cn(-c5ccccc5)cn4)c(=O)oc3c2)C[C@H](C)N1 [Cpd 452]
# output 260 to 264 °C

# input Given the compound Cc1cn2cc(-c3cc4ccc(C5CCN(CCO)CC5)cc4oc3=O)ccc2n1 [Compound 829] , what is its reported melting point?
# output 222 to 226 °C

# input Item CN1CCCN(c2ccc3cc(-c4cc5ccccn5n4)c(=O)oc3c2)CC1 [Compound 193] has what recorded melting point?
# output 159 to 163 °C

# input Looking for the measured melting point of C[C@@H]1CN(c2ccc3cc(-c4cn5ccccc5n4)c(=O)oc3c2)C[C@H](C)N1 [Compound 139] , can you help?
# output 261 °C (dec.)

# input Returns the measured melting point for the input compound. Input: Cc1cccn2cc(-c3cc4c(F)cc(N5CCN(C)CC5)cc4oc3=O)nc12 [Compound 423]
# output 232 to 237 °C

# input // query melting point value for entry Cc1ccn2nc(-c3cc4ccc(N5CCNC(C)(C)C5)cc4oc3=O)cc2c1 [Compound 305]
# output 203 to 205 °C

# input Fill in the blank: the reported melting point of Cc1nc2ccc(-c3cc4ccc(N5CCNCC5)cc4oc3=O)cc2o1 [Compound 695] is ____.
# output 200 to 205 °C

# input Requested field: melting point. Item: C[C@@H]1CN(c2cc(F)c3cc(-c4cn5cccnc5n4)c(=O)oc3c2)C[C@H](C)N1 [Compound 352]
# output 290 to 292 °C

# input Query: melting point; subject: Cc1cn2cc(-c3cc4ccc(C5CCNCC5)cc4oc3=O)nc2cn1 [Compound 868]
# output 247 to 253 °C

# input Name the reported melting point value associated with the compound Cc1ccn2cc(-c3cc4ccc(NC5CCN(C)CC5)cc4oc3=O)nc2c1 [Compound 474]
# output 224 to 230 °C

# input Record request: melting point value, item Cc1cc([N+](=O)[O-])c2nc(-c3cc4ccc(N5C[C@@H](C)N[C@@H](C)C5)cc4oc3=O)cn2c1 [Compound 701]
# output 290 to 300 °C

# input // returns reported melting point for input Cc1ccnc(Nc2cc3ccc(N4CCNCC4)cc3oc2=O)c1 [Compound 62]
# output 182 to 185 °C

# input Fill in the blank: the reported melting point of Cc1c(-c2nc3ccccc3s2)c(=O)oc2cc(N3CCNCC3)ccc12 [Compound 147] is ____.
# output 234 to 236 °C

# input Given the compound O=c1oc2cc(N3CCNCC3)cc(F)c2cc1-c1nc2ccccc2s1 [Cpd 160] , what is its reported melting point?
# output 256 to 260 °C

# input Please report the recorded melting point for C[C@@H]1CN(c2ccc3cc(-c4cn5cc(C6CC6)cc(F)c5n4)c(=O)oc3c2)C[C@H](C)N1 [Compound 497] .
# output 257 to 267 °C

# input Name the reported melting point value associated with the compound CN1CCN(c2ccc3cc(-c4nc5ccccc5s4)c(=O)oc3c2)CC1 [Compound 16]
# output 259 to 262 °C
